Listed here: items and their measured ELISA absorbance 405 nm.
testTarget: T1, recombinant human EGFRvIII protein (extracellular domain), native (human, UniProt P00533 298-623)
T1 construct: also called hEGFRvIII
protocolDetails: ELISA Exp 1, mAb supernatant
Please state the figure in A405; there is no need to write the unit.

F266-11H3 (antibody, V domains shown, Mouse hybridoma mAb) VH: QIQLVQSGPELKKPGETVKISCKASGYTFTTAGMQWVQKMPGKGFKWIGWINTHSGDPKYAEDFKGRFAFSLETYASTAYLQISNLKNEDTATYFCARTHIYDGYNYAMDYWGQGTSVTVSS VL: DVVMTQTPLSLPVSLGDQASISCRSSQSLVYSNGNTYLHWYLQKPGQSPKLLIYKVSNRFSGVPDRFSGSGSGTDFTLKISRVEAEDLGVYFCSQSTHVPFTFGSGTKLEIK = 1.66

Attention now shifts to the item below.
Query: Entry F263-4B3 (antibody, V domains shown, Mouse hybridoma mAb) VH: EVQLQQSGPELVKPGSSVKISCKASGYTFTDYNMDWVKQSHGKSLEWIGTINPNNGGTSYNQKFKGKATLTVDKSSNTAYMELRSLTSEDSAVYYCARGYDYDLWFAYWGQGTLVTVSA VL: EIVLTQSPALMAASPGEKVTITCSVSSSISSSNLHWYQQKSETSPKPWIYGTSNLASGVPVRFSGSGSGTSYSLTISSMEAEDAATYYCQQWSSYPLTFGAGTKLELE : reported ELISA absorbance 405 nm = ?
Result: 1.5
